Where a name gives a salt, the structure may show the parent alone.
I'd be grateful if you could share measured pIC50 for these entries.
Remember the convention: pIC50 equals -log10 of concentration in molar.

Asked: Recall the recorded pIC50 for COc1cncc(-c2cccc(C3(c4ccc(OC(F)F)cc4C)COC(N)=N3)c2)c1 (racemic) [Example 146, formate] with 6his-tagged full length BACE 1 from SF9 cells (Homo sapiens) and state it.
Sequence (P56817 46-501): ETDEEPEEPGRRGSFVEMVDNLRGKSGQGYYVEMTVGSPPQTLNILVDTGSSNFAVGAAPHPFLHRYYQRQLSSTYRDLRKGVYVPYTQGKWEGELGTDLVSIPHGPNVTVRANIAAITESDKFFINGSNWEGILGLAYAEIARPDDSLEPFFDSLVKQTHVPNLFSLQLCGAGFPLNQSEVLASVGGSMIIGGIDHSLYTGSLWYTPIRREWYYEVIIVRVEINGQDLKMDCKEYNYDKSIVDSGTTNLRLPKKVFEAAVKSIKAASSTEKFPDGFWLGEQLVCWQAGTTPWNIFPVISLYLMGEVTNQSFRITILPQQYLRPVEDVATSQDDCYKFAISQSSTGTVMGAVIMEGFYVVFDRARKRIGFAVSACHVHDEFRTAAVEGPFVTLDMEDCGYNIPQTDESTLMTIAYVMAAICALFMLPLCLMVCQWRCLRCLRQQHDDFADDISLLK
Given back: 6.70

Asked: Recall the recorded pIC50 for COc1ccc(C2(c3ccc(F)c(-c4ccc(F)nc4)c3)COC(N)=N2)cc1C (racemic) [Example 25, formate] with 6his-tagged full length BACE 1 from SF9 cells (Homo sapiens) and state it.
Given back: 6.02

Asked: Recall the recorded pIC50 for Cc1cc(C2(c3cccc(-c4cnccn4)c3)COC(N)=N2)ccc1OC(F)F (racemic) [Example 204, formate] with 6his-tagged full length BACE 1 from SF9 cells (Homo sapiens) and state it.
Given back: 6.80

Asked: Recall the recorded pIC50 for Cc1cncc(-c2cccc(C3(c4ccc(OC(F)F)c(C)c4)COC(N)=N3)c2)c1 (racemic) [Example 103, formate] with 6his-tagged full length BACE 1 from SF9 cells (Homo sapiens) and state it.
Given back: 6.49

Asked: Recall the recorded pIC50 for Cc1cc(C2(c3ccc(F)c(-c4cncc(Cl)c4)c3)COC(N)=N2)ccc1OC(F)F (racemic) [Example 205, formate] with 6his-tagged full length BACE 1 from SF9 cells (Homo sapiens) and state it.
Given back: 7.05

Asked: Recall the recorded pIC50 for Cc1cc(C2(c3cccc(-c4cccc(Cl)c4)c3)COC(N)=N2)ccc1OC(F)F (racemic) [Example 99, formate] with 6his-tagged full length BACE 1 from SF9 cells (Homo sapiens) and state it.
Given back: 6.77

Asked: Recall the recorded pIC50 for Cc1cc(OC(F)F)ccc1C1(c2cccc(-c3cncc(F)c3)c2)COC(N)=N1 (racemic) [Example 145, formate] with 6his-tagged full length BACE 1 from SF9 cells (Homo sapiens) and state it.
Given back: 6.14

Asked: Recall the recorded pIC50 for NC1=NC(c2cccc(-c3cncc(Cl)c3)c2)(c2ccc(OC(F)F)c(F)c2)CO1 (racemic) [Example 115, formate] with 6his-tagged full length BACE 1 from SF9 cells (Homo sapiens) and state it.
Given back: 6.62

Asked: Recall the recorded pIC50 for CCOCc1cc(Nc2cccc(OC)c2)cc(C2(c3ccc(OC(F)F)c(C)c3)COC(N)=N2)c1 (racemic) with 6his-tagged full length BACE 1 from SF9 cells (Homo sapiens) and state it.
Given back: 6.85

Asked: Recall the recorded pIC50 for CCOCc1cc(Nc2ccccc2)cc(C2(c3ccc(OC)c(C)c3)COC(N)=N2)c1 (racemic) with 6his-tagged full length BACE 1 from SF9 cells (Homo sapiens) and state it.
Given back: 6.02

Asked: Recall the recorded pIC50 for COc1cncc(-c2cccc(C3(c4ccc(OC(F)F)c(C)c4)COC(N)=N3)c2)c1 (racemic) [Example 101, formate] with 6his-tagged full length BACE 1 from SF9 cells (Homo sapiens) and state it.
Given back: 7.22

Asked: Recall the recorded pIC50 for COc1ccc(C2(c3cccc(-c4cncc(F)c4)c3)COC(N)=N2)cc1Cl (racemic) with 6his-tagged full length BACE 1 from SF9 cells (Homo sapiens) and state it.
Given back: 6.19

Asked: Recall the recorded pIC50 for Cc1cc(C2(c3cccc(-c4cncc(Cl)c4)c3)COC(N)=N2)ccc1OC(F)F (racemic) [Example 94, formate] with 6his-tagged full length BACE 1 from SF9 cells (Homo sapiens) and state it.
Given back: 7.22

Asked: Recall the recorded pIC50 for COc1cccc(-c2cc(C3(c4ccc(OC)c(C)c4)COC(N)=N3)ccc2F)c1 (racemic) [Example 21, formate] with 6his-tagged full length BACE 1 from SF9 cells (Homo sapiens) and state it.
Given back: 6.10

Asked: Recall the recorded pIC50 for Cc1cc(OC(F)F)ccc1C1(c2cccc(-c3cncnc3)c2)COC(N)=N1 (racemic) [Example 129, formate] with 6his-tagged full length BACE 1 from SF9 cells (Homo sapiens) and state it.
Given back: 6.30

Asked: Recall the recorded pIC50 for COc1ccc(F)c(-c2cccc(C3(c4ccc(OC(F)F)cc4C)COC(N)=N3)c2)c1 (racemic) [Example 130, formate] with 6his-tagged full length BACE 1 from SF9 cells (Homo sapiens) and state it.
Given back: 6.31

Asked: Recall the recorded pIC50 for NC1=NC(c2ccc(OC(F)F)cc2)(c2cccc(-c3cncc(F)c3)c2)CO1 (racemic) [Example 88, formate] with 6his-tagged full length BACE 1 from SF9 cells (Homo sapiens) and state it.
Given back: 6.43

Asked: Recall the recorded pIC50 for COc1ccc(C2(c3cccc(-c4cccc(Cl)c4)c3)COC(N)=N2)cc1C (racemic) [Example 42, formate] with 6his-tagged full length BACE 1 from SF9 cells (Homo sapiens) and state it.
Given back: 6.10

Asked: Recall the recorded pIC50 for Cc1cc(C2(c3cccc(-c4cccnc4)c3)COC(N)=N2)ccc1OC(F)F (racemic) [Example 97, formate] with 6his-tagged full length BACE 1 from SF9 cells (Homo sapiens) and state it.
Given back: 6.92

Asked: Recall the recorded pIC50 for COc1ccc([C@@]2(c3cccc(-c4cccc(Cl)c4)c3)COC(N)=N2)cc1 [Example 39A] with 6his-tagged full length BACE 1 from SF9 cells (Homo sapiens) and state it.
Given back: 6.36

Asked: Recall the recorded pIC50 for COc1cncc(-c2cccc(C3(c4ccc(OC(F)F)cc4)COC(N)=N3)c2)c1 (racemic) [Example 90, formate] with 6his-tagged full length BACE 1 from SF9 cells (Homo sapiens) and state it.
Given back: 6.82

Asked: Recall the recorded pIC50 for Cc1cc(C2(c3ccc(F)c(-c4cncc(F)c4)c3)COC(N)=N2)ccc1OC(F)F (racemic) [Example 122, formate] with 6his-tagged full length BACE 1 from SF9 cells (Homo sapiens) and state it.
Given back: 6.82

Asked: Recall the recorded pIC50 for Cc1cc(C2(c3cccc(-c4cccnc4F)c3)COC(N)=N2)ccc1OC(F)F (racemic) [Example 98, formate] with 6his-tagged full length BACE 1 from SF9 cells (Homo sapiens) and state it.
Given back: 6.82

Asked: Recall the recorded pIC50 for COc1ccc(C2(c3ccc(F)c(-c4cccnc4)c3)COC(N)=N2)cc1Cl (racemic) [Example 109, formate] with 6his-tagged full length BACE 1 from SF9 cells (Homo sapiens) and state it.
Given back: 6.11

Asked: Recall the recorded pIC50 for CCOc1ccc(C2(c3cccc(-c4cccc(Cl)c4)c3)COC(N)=N2)cc1C (racemic) [Example 66, formate] with 6his-tagged full length BACE 1 from SF9 cells (Homo sapiens) and state it.
Given back: 6.13
